The measurements presented in this section are drawn from PubChem BioAssay (NCI).

System: NCI-H460 lung
Assay: NCI tumour cell line growth inhibition, 48 h
Could you please report measured TGI for the items listed next?

Req: Quick one: TGI for Cc1ccccc1NC(=O)c1c(C)oc2c1C(=O)c1ccccc1C2=O ?
Resp: > 100 µM

Req: Request the reported TGI associated with Cc1cc(O)cc2c1[C@]1(C)CCC3C(C)(C)CCC[C@]3(C)[C@H]1C2 (stereo partly specified)
Resp: 37.1 µM

Req: Recorded TGI for COc1cccc(/C=C/[N+](=O)[O-])c1 , please?
Resp: 38.8 µM

Req: Value lookup for TGI; key = Cc1cc(=O)oc2c(C)c(O)ccc12
Resp: > 100 µM

Req: Given the entry Cc1cccc(C)c1CO , report its measured TGI.
Resp: > 100 µM

Req: Recorded TGI of O=C(O)NC(c1ccccc1)C(NC(=O)c1ccccc1)c1ccccc1 (stereo unspecified) , please.
Resp: > 100 µM

----------
System: U251 CNS
Test: NCI tumour cell line growth inhibition, 48 h
Value Kind: TGI

Req: # query: TGI | item NC(N)=NS(=O)(=O)c1ccc(NNc2c3ccccc3nc3c(C(=O)Nc4ccc(S(=O)(=O)N=C(N)N)cc4)cccc23)cc1 | system: U251 CNS
Resp: > 100 µM

Req: Under U251 CNS: TGI value of O=C(Nc1ccc(Cl)cc1Cl)C1C(=O)C(=O)N(c2ccc(Cl)cc2Cl)C1=O (stereo unspecified) ?
Resp: > 100 µM

Req: Recorded TGI for C1CSCCSCCSCCSC1 with U251 CNS, please?
Resp: > 100 µM

Req: Hi! What's the reported TGI for O=S(=O)(NCCCNc1nccc(-c2c(-c3ccc(F)c(O)c3)nc3sccn23)n1)c1ccc(F)cc1 on U251 CNS?
Resp: > 100 µM

Req: Param readout = TGI; param system = U251 CNS; param query = CC1=CC[C@H](C(C)C)C(C(O)[C@@H](C)O[Si](c2ccccc2)(c2ccccc2)C(C)(C)C)C1=O (stereo partly specified) ; response: value
Resp: 31.8 µM

Req: Write down the reported TGI of c1cc(N2CCCN(c3ccc(C4=NCCCN4)cc3)CC2)ccc1C1=NCCCN1 , test system: U251 CNS.
Resp: > 100 µM

Req: U251 CNS / TGI / Oc1cc2c3c(c1)CCCN3CCC2 : value?
Resp: > 10 µM

Req: Record lookup: for U251 CNS, what TGI belongs to COc1cc2nc(-c3cccs3)nc(N3CCN(c4ccccc4C(F)(F)F)CC3)c2cc1OC ?
Resp: > 100 µM

Req: Item O=C(CC(C(=O)c1cccs1)c1cccs1)c1ccsc1 (stereo unspecified) with U251 CNS - TGI?
Resp: > 100 µM

Req: I'm curious: which TGI was measured for CN1C/C(=C\c2cccs2)C2=NN(C)C(c3cccs3)C2C1 (stereo unspecified) tested on U251 CNS?
Resp: > 100 µM

Req: Query for U251 CNS: what TGI does the record show for C=C1C(=O)O[C@H]2[C@H]1CC/C(COC(=O)c1cc3ccccc3o1)=C\CC[C@@]1(C)O[C@@H]21 ?
Resp: 3.16 µM

Req: # get_value(readout= TGI, system= U251 CNS) for COc1ccc(C(=O)C(C(=O)CC(=O)Nc2cccc(C(F)(F)F)c2)c2ccc(OC)cc2)cc1 (stereo unspecified)
Resp: > 100 µM

Req: What reported TGI corresponds to CC(=O)OC[C@]1(C)CCCC2(C)C1CCC1C=C(C)[C@H]3CCC12C3 (stereo partly specified) on U251 CNS?
Resp: > 100 µM

Req: For the record O=C(Nc1ccccc1)c1cc2ccccc2c(N=Nc2ccc([N+](=O)[O-])cc2)c1O , what value of TGI is listed for U251 CNS?
Resp: > 100 µM

Req: Kindly state the measured TGI obtained for COc1c(OC(C)C)c(OC(C)C)c2oc(=O)n3c2c1C(c1ccccc1-n1c(C)ccc1C)C=C3 (stereo unspecified) with U251 CNS.
Resp: > 100 µM

Req: Observed TGI on U251 CNS for COc1ccc(-c2c3c(cc4cc5c(cc24)OCO5)C(=O)OC3)cc1OC , please.
Resp: 22 µM

Req: Please state recorded TGI (tested on U251 CNS) of CNC(=S)NC(=O)c1c(Cl)n(C(=O)OC(C)(C)C)c2ccccc12
Resp: > 100 µM

Req: API: value(readout= TGI, system= U251 CNS, query= NC(=O)CCC(Nc1c2ccccc2nc2ccccc12)C(=O)O (stereo unspecified) )
Resp: > 100 µM

Req: Form field: TGI recorded for CC(=O)c1cccc(C)c1C(=O)O with U251 CNS (enter value)
Resp: > 100 µM

Req: TGI of CC(C)(Oc1ccccc1)C(=O)Sc1c(-c2ccccc2)c(=O)n(-c2ccccc2)c(=S)n1-c1ccccc1 on U251 CNS?
Resp: 56.5 µM

Req: Form field: TGI recorded for CSC1=Nc2ccccc2-c2nc3ccccc3cc2C1 with U251 CNS (enter value)
Resp: > 100 µM

Req: I'm curious: which TGI was measured for C/C(=N\Nc1cc(C)c2ccccc2n1)c1ccccn1 tested on U251 CNS?
Resp: 1.16 µM

Req: Quick check: TGI on U251 CNS, item O=c1cc(N2CCN(CCCCCOc3cc(O)c4c(=O)cc(-c5ccccc5)oc4c3)CC2)c2ccccc2o1 ?
Resp: > 100 µM

Req: Lab request: please report TGI under test system U251 CNS for O=[N+]([O-])c1ccc(N=Nc2c(O)ccc3ccccc23)c([N+](=O)[O-])c1
Resp: > 100 µM

Req: Lab request: please report TGI under test system U251 CNS for Clc1ccc(OCc2nnc(CCCCCCCCc3nnc(COc4ccc(Cl)cc4Cl)n3Nc3ccccc3)n2Nc2ccccc2)c(Cl)c1
Resp: 27.1 µM

Req: Form: Entry = COc1cccc(/C=C/[N+](=O)[O-])c1 | System = U251 CNS | TGI = ____
Resp: 14.8 µM

Req: Under U251 CNS: TGI value of CC1(C)CCc2c(c(N=Nc3ccc(S(N)(=O)=O)cc3)c3ccccc3c2O)O1 ?
Resp: 20.9 µM

Req: For the record CCCCN1CN2C(=O)C(C(=O)OCC)C(=O)c3sc4nc(SC)nc1c4c32 (stereo unspecified) , what value of TGI is listed for U251 CNS?
Resp: 33.7 µM

Req: Fill in the recorded TGI for this molecule, with U251 CNS as test system: COc1ccc(-c2cc(=O)c3ccccc3o2)cc1N
Resp: > 100 µM

Req: Requested read-out TGI, target or system U251 CNS, entry COc1cc2cc3c4cc(OC)c(OC)cc4cc[n+]3cc2cc1OC
Resp: > 100 µM

Req: Give TGI (U251 CNS) of the following molecule: CC1=NN(c2cccc(Cl)c2)C2(SCC(=O)N2c2nc3ccccc3s2)/C1=C\c1ccc(N(C)C)cc1 (stereo unspecified)
Resp: > 100 µM

Req: Under U251 CNS: TGI value of CC[C@H](Nc1c(O)c2c(c(O)c1Cl)C(=O)C=CC2=O)C(=O)OC ?
Resp: > 10 µM

Req: Value wanted: TGI (U251 CNS) of entry CCN(CC)CCCNC(=O)C1COc2cc(-c3cc(=O)c4ccccc4o3)ccc2O1 (stereo unspecified)
Resp: > 100 µM

Req: Query TGI on U251 CNS for N#Cc1c(=O)c2ccccc2n2c1[nH]c1ccccc12
Resp: > 100 µM

Req: Kindly state the measured TGI obtained for C[C@@H](O)[C@H](NC(=O)N[C@@H](CC(N)=O)c1nc([C@@H](N)CO)no1)C(=O)O with U251 CNS.
Resp: > 100 µM

Req: What is its TGI for U251 CNS? Entry: CC1=C(C(=O)Nc2ccc(Cl)c(Cl)c2)C(c2cccc(Cl)c2)NC(=O)N1 (stereo unspecified)
Resp: 17 µM

Req: Give U251 CNS TGI for N#CC(C#N)=C/C=C(\Sc1c(Cl)c(Cl)nc(Cl)c1Cl)c1ccc(Cl)cc1
Resp: 33.3 µM

Req: Item: CCn1c(SCC(=O)N/N=C/c2ccccc2)nc2ccccc2c1=O Test system: U251 CNS Read-out: TGI Value: ?
Resp: > 70.9 µM

Req: Request body: readout TGI, system U251 CNS, query CCCN(CCC)c1ccc(/C=C/c2ccc3cc(OCC)ccc3n2)cc1 . Return the value.
Resp: > 100 µM

Req: Record lookup: for U251 CNS, what TGI belongs to COc1ccc(N2C(=O)[C@H]3[C@H]4CC(C(C)(C)C)CC[C@H]4c4c(n(C)c5ccccc45)[C@H]3C2=O)cc1 (stereo partly specified) ?
Resp: > 56.2 µM

Req: What reported TGI corresponds to CCOc1ccc(N=Cc2ccc3cc(C)ccc3n2)cc1 on U251 CNS?
Resp: > 100 µM
